Every entry's value here was drawn from PubChem BioAssay AID1159580.

experiment: chemical genetic growth profiling, strain panel (AID 1159580);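 further: tested at 20 µM; growth read once vehicle control cultures reached saturation at 30 °C; 1 = growth at the plate median or of vehicle wells; lower values mean less growth of the strain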; settings: S. cerevisiae deletion strains, growth OD, locus YCL061C, strain MRC1 (second series), stronger effect = lower value
Screen size: about 5,500 compounds; about 2,000 (36%) were called active. Another 18% or so got no clear call; they are omitted. The list shows a part of the results.
Reported Property: normalized growth
Respond numerically, and do not add a unit to the figure.

Exercise: Check the records and state normalized growth for O=Nc1ccc2oc(=O)ccc2c1
Solution: 0.973

Exercise: Supply measured normalized growth of N=c1nc(N2CCCCC2)cc(N)n1O in your reply.
Solution: 1

Exercise: Return the recorded normalized growth value; entry: Ic1ccccc1CNC1C2CCN(CC2)C1C(c1ccccc1)c1ccccc1 (stereo not drawn)
Solution: 0.984

Exercise: Supply recorded normalized growth for Cn1cc(C2=C(c3ccc(Cl)cc3Cl)C(=O)NC2=O)c2ccccc21 here.
Solution: 1.01

Exercise: Annotate the compound COc1cc(C(O)C(=O)O)ccc1O (stereo not drawn) with its measured normalized growth.
Solution: 0.994

Exercise: Identify normalized growth associated with the compound O=C(O)[C@@H]1C[C@H](C(=O)O)N1
Solution: 0.984

Exercise: Give me measured normalized growth, please, for this compound: CCN(CC)C(=S)SSC(=S)N(CC)CC
Solution: 0.936

Exercise: Report measured normalized growth; entry is NC/C=C/C(=O)O
Solution: 1

Exercise: Identify measured normalized growth corresponding to NC(=O)COc1c(F)cc(SCCNS(=O)(=O)c2ccccc2)cc1F
Solution: 1

Exercise: For the compound Cc1cccc(C#Cc2ccccc2)n1 , give its reported normalized growth.
Solution: 0.968

Exercise: Report normalized growth for CCOC(=O)C1=C(C)NC(=S)NC1c1cccc(O)c1 (stereo not drawn)
Solution: 1

Exercise: Output measured normalized growth for this item: CCCN1CCC[C@@H]2Cc3nc(N)ncc3C[C@H]21
Solution: 1.01

Exercise: Fill in reported normalized growth for this entry: C[N+]1(C)C2CCC1CC(OC(=O)c1c[nH]c3ccccc13)C2 (stereo not drawn)
Solution: 0.996

###

test: chemical genetic growth profiling, strain panel (AID 1159580);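 further: tested at 20 µM; growth read once vehicle control cultures reached saturation at 30 °C; 1 = growth at the plate median or of vehicle wells; lower values mean less growth of the strain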; settings: S. cerevisiae deletion strains, growth OD, locus YOR106W, strain vam3, stronger effect = lower value
The campaign covered roughly 5,500 compounds. About 2,000 (36%) were called active. About 18% were inconclusive and are not listed. Some of the results follow.
Field: normalized growth. Provide a value for each of the compounds that follow.

Exercise: Check the records and state normalized growth for CCN(CC)C(=S)SSC(=S)N(CC)CC
Solution: 0.0652 (active)

Exercise: Give me measured normalized growth, please, for this compound: C[N+](C)(C)CCOP(=O)([O-])OP(=O)(O)OC[C@H]1OC(n2ccc(N)nc2=O)[C@H](O)[C@@H]1O (some centres undefined)
Solution: 0.982 (inactive)

Exercise: Report normalized growth, nothing else, for this compound: CC(=O)OC1CC23CC24CCC(OC2OCC(O)C(O)C2O)C(C)(C)C4CCC3C2(C)CC3OC4(CC(C)C3C12C)OC(O)C1(C)OC41 (centres undefined)
Solution: 0.975 (inactive)

Exercise: Identify measured normalized growth associated with COc1ccc(-c2coc3c(O)c(OC)ccc3c2=O)cc1
Solution: 0.882 (inactive)

Exercise: Using known records, supply normalized growth for O=C(O)C1CC([C@@H]2CCCCN2)CN2CCCCC12 (some centres undefined)
Solution: 1 (inactive)

Exercise: Report normalized growth, nothing else, for this compound: CC(C)[C@H](N)C(=O)OCCOCn1cnc2c(=O)[nH]c(N)nc21
Solution: 1.02 (inactive)

Exercise: Give the measured normalized growth for NC(N)=NOCC[C@H](N)C(=O)O
Solution: 1.01 (inactive)

Exercise: Please report normalized growth for the following compound: CC(=O)O[C@]1(C(C)=O)CCC2C3C=C(Cl)C4=CC(=O)CC[C@]4(C)C3CC[C@@]21C (some centres undefined)
Solution: 1.03 (inactive)

Exercise: Determine from records and report normalized growth for COc1ccc2cc1Oc1ccc(cc1)C[C@H]1c3c(cc4c(c3Oc3cc5c(cc3OC)CCN(C)[C@@H]5C2)OCO4)CCN1C
Solution: 1.04 (inactive)

Exercise: Complete the entry with normalized growth for O=C(Cc1ccccc1)NO
Solution: 0.939 (inactive)

Exercise: Indicate its recorded normalized growth; the compound in question is N#Cc1c(Cl)c(Cl)c(Cl)c(C#N)c1Cl
Solution: 0.0853 (active)

Exercise: Identify the reported normalized growth for the following entry. OCC(O)Cc1ccc2c(c1)OCO2 (centres undefined)
Solution: 1.03 (inactive)

Exercise: Given CN1CCCC(n2nc(Cc3ccc(Cl)cc3)c3ccccc3c2=O)CC1 (centres undefined) , respond with its normalized growth.
Solution: 0.993 (inactive)

Exercise: Report normalized growth for CO[C@H]1C[C@H](O[C@H]2[C@H](C)[C@@H](OC3O[C@H](C)C[C@H](N(C)C)[C@H]3O)[C@@H](C)C[C@]3(CO3)C(=O)[C@H](C)[C@@H](O)[C@@H](C)[C@@H](C)OC(=O)[C@@H]2C)O[C@@H](C)[C@@H]1O (some centres undefined)
Solution: 1.08 (inactive)

Exercise: # return recorded normalized growth for input O=C(/C=C/C=C/c1ccc2c(c1)OCO2)N1CCCCC1
Solution: 0.925 (inactive)

Exercise: Indicate its recorded normalized growth; the compound in question is Cn1cc[nH]c1=S
Solution: 0.977 (inactive)

Exercise: Please give the documented normalized growth of NCC1CCCCC1CC(=O)O (centres undefined)
Solution: 1.06 (inactive)

Exercise: Tell me normalized growth reported for O=c1ccc2ccccc2o1
Solution: 0.998 (inactive)

Exercise: Please report normalized growth for the following compound: NC/C=C/C(=O)O
Solution: 0.991 (inactive)

Exercise: Report measured normalized growth; entry is COc1ccc2cc1Oc1ccc(cc1)C[C@H]1c3cc(c(OC)cc3CCN1C)Oc1c(OC)c(OC)cc3c1[C@H](C2)N(C)CC3
Solution: 0.961 (inactive)

Exercise: Quote normalized growth reported for C=C1CC[C@H](O)C/C1=C/C=C1\CCC[C@]2(C)C([C@H](C)/C=C/[C@H](C)C(C)C)CC[C@@H]12 (some centres undefined) please.
Solution: 1.04 (inactive)

Exercise: Provide one value: measured normalized growth of COC(=O)COc1cc(Cl)c(Cl)cc1Cl
Solution: 1.02 (inactive)

Exercise: Give the measured normalized growth for C[CH2][Hg][S]c1ccccc1C(=O)O
Solution: 0.0597 (active)

Exercise: Respond only with normalized growth recorded for COc1ccc([C@@H]2CC(=O)c3c(O)cc(O)cc3O2)cc1O
Solution: 0.946 (inactive)

Exercise: Name the recorded normalized growth of the item CCCCCCCC/C=C/CCCCCCCCOP(=O)([O-])OCC[N+](C)(C)C in your answer.
Solution: 0.0591 (active)

Exercise: Indicate its recorded normalized growth; the compound in question is O=C1C[C@@H](c2ccc(O)cc2)Oc2cc(O)cc(O)c21
Solution: 0.963 (inactive)

Exercise: Return normalized growth (reported value) for this compound: COc1ccc(C2CC(=O)c3ccc(OC)cc3O2)cc1 (centres undefined)
Solution: 0.887 (inactive)

Exercise: Output measured normalized growth for this item: O=C(O)c1cc(=O)c2ccc(Cl)cc2[nH]1
Solution: 1.05 (inactive)

Exercise: Read off the recorded normalized growth for NC[C@@H]1O[C@H](O[C@@H]2[C@@H](CO)OC(O[C@@H]3[C@@H](O)[C@H](N)C[C@H](N)[C@H]3OC3O[C@H](CN)[C@@H](O)[C@H](O)[C@H]3N)[C@@H]2O)[C@H](N)[C@@H](O)[C@@H]1O (some centres undefined)
Solution: 1.04 (inactive)

Exercise: Report measured normalized growth; entry is O=C(O)COc1cc(Cl)c(Cl)cc1Cl
Solution: 1.02 (inactive)

Exercise: Tell me normalized growth reported for CC(C)(N=NC(C)(C)C(=N)N)C(=N)N
Solution: 0.886 (inactive)

Exercise: Please give measured normalized growth of the following entry: OCCN(CCO)c1nc(N2CCCCC2)c2nc(N(CCO)CCO)nc(N3CCCCC3)c2n1
Solution: 1.01 (inactive)

Exercise: Name the recorded normalized growth of the item COc1cccc([C@]2(O)CCCC[C@H]2CN(C)C)c1 in your answer.
Solution: 0.969 (inactive)

Exercise: Identify measured normalized growth corresponding to CCCCCC(=O)O[C@]1(C(C)=O)CCC2C3CCC4=CC(=O)CC[C@]4(C)C3CC[C@@]21C (some centres undefined)
Solution: 1.01 (inactive)

Exercise: Please supply the value of reported normalized growth for the item CC(=O)O[C@@](C)(CCC=C(C)C)C1CC=C(C)CC1 (some centres undefined)
Solution: 0.975 (inactive)

Exercise: Return value of normalized growth for input N=c1nc(N2CCCCC2)cc(N)n1O , no commentary.
Solution: 0.944 (inactive)

Exercise: Give normalized growth for the following compound: COc1cc2c(cc1OC)C(=O)C(CC1CCN(Cc3ccccc3)CC1)C2 (centres undefined)
Solution: 0.902 (inactive)

Exercise: Item C[N+](C)(C)CC(=O)[O-] : provide normalized growth
Solution: 0.925 (inactive)

Exercise: Give normalized growth for C=CCc1ccc2c(c1)OCO2
Solution: 1.04 (inactive)

Exercise: Give normalized growth for CNc1ccccc1C(=O)N1CCc2c([nH]c3ccccc23)C1=O
Solution: 0.924 (inactive)

Exercise: Fill in normalized growth for record COc1ccc2c(c1)C1(C)CCC(=O)CC1CC2 (centres undefined)
Solution: 1.02 (inactive)

Exercise: Annotate the compound Cc1cc(OC(=O)N2CCCCC2)c(C(C)C)cc1[N+](C)(C)C with its measured normalized growth.
Solution: 0.99 (inactive)

Exercise: Please report normalized growth for the following compound: COc1c2c(c(CC=C(C)C)c3oc(=O)c(-c4ccc(O)cc4)c(O)c13)OC(C)(C)C=C2
Solution: 0.883 (inactive)

Exercise: Check the records and state normalized growth for CC(C)N(C(=O)CCl)c1ccccc1
Solution: 0.958 (inactive)
